src = paper PMC6852375

Biological target: T1, Murine OPG-Fc (mouse, UniProt O08712 22-401)
T1 sequence (looked up): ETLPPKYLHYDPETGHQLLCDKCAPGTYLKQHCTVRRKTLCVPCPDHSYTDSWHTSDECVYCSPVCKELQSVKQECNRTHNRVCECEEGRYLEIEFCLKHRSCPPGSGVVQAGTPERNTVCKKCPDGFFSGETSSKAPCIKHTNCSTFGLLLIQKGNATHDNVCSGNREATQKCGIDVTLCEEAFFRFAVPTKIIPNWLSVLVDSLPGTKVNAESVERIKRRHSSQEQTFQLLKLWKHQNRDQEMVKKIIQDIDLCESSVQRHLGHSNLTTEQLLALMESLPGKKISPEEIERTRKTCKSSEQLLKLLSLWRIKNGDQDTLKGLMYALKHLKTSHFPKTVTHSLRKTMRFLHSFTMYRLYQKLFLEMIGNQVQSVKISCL
Assay: SPR
Kd reference
# number only, unit nM dropped from output

As a guide, the following entries are already answered.
>  <BINDER>
RANKL_Q236S (ligand, mouse, UniProt O35235 160-316, looked up) EAQPFAHLTINAASIPSGSHKVTLSSWYHDRGWAKISNMTLSNGKLRVNQDGFYYLYANICFRHHETSGSVPTDYLSLMVYVVKTSIKIPSSHNLMKGGSTKNWSGNSEFHFYSINVGGFFKLRAGEEISIQVSNPSLLDPDQDATYFGAFKVQDID

>  <Kd, nM>
0.0233

$$$$
>  <BINDER>
RANKL_WT (mouse soluble RANKL, aa 160–316) (ligand, UniProt O35235 160-316, looked up) EAQPFAHLTINAASIPSGSHKVTLSSWYHDRGWAKISNMTLSNGKLRVNQDGFYYLYANICFRHHETSGSVPTDYLQLMVYVVKTSIKIPSSHNLMKGGSTKNWSGNSEFHFYSINVGGFFKLRAGEEISIQVSNPSLLDPDQDATYFGAFKVQDID

>  <Kd, nM>
0.0043

$$$$

Then this binder:
Q: Return reported Kd; argument: RANKL_Q236K (ligand, mouse, UniProt O35235 160-316, looked up) EAQPFAHLTINAASIPSGSHKVTLSSWYHDRGWAKISNMTLSNGKLRVNQDGFYYLYANICFRHHETSGSVPTDYLKLMVYVVKTSIKIPSSHNLMKGGSTKNWSGNSEFHFYSINVGGFFKLRAGEEISIQVSNPSLLDPDQDATYFGAFKVQDID
A: 0.143
